# target_desc: T1, 4H2444-bH
# T1 chain: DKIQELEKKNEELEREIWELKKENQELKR
# measurement_protocol: two-hybrid library CCNG1;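 also: natural log of median RNA to DNA barcode read ratio; higher means stronger binding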
Label Y when interaction score is at or above -0.04; otherwise label N.

The examples below pair each entry with its known result.
DKIQELEKENEELERKNWELKKEIQELER [4H2233-bH]; N
DKIQELEKEIEELKRENWELKKKNQELER [4H2143-bH]; N
DEIQELEKENEELKRKIWELKKENQELER [4H235-bH]; Y

-- ask interaction score >= -0.04 for DKIQELEKKNEELEREIWELKKENQELKR [4H2444-bH] ?
-- reply Y

-- ask What would you report for DEIQELEKENEELERKIWELEKKIQELKR [4H166-bH] ?
-- reply Y

-- ask What would you report for DKIQELEKENEELKREIWELKKKIQELER [4H2253-bH] ?
-- reply N

-- ask What would you report for DKIQELEKEIEELKRKNWELEKEIQELKR [4H2162-bH] ?
-- reply Y
